test system: U2932 DoxoR; assay: Viable cells/apoptosis in doxorubicin-resistant and matching parental lines; type: cell-based; settings: Homo sapiens; U2932 DoxoR; read-out: Doxorubicin IC50
observationType: pIC50
Answers are plain numbers, as −log10 of the molar value.

Q) Suppose we examine the compound COc1cccc2c1C(=O)c1c(O)c3c(c(O)c1C2=O)C[C@@](O)(C(=O)CO)C[C@@H]3O[C@H]1C[C@H](N)[C@H](O)[C@H](C)O1 [Doxorubicin, reference compound] ; what pIC50 value has been reported?
A) 5.97

----------
Tested on: SU-DHL10 CRBN^WT cells
Assay: Cell proliferation in CRBN^WT (CAS9 control) cells, 5 days
Assay type: cell-based
Conditions: Homo sapiens, 120 h
Description: The activated B-cell (ABC) and MYC/BCL2 double expressor cell lines SU-DHL-2 and RIVA, the germinal center B-cell (GCB) and MYC/BCL2 double hit cell lines (and expressing BCL6) Karpas-422, SU-DHL-10, WSU-DLCL2, and the primary mediastinal B-cell lymphoma (PMBL) cell line Farage were infected with a CAS9 expressing lentivirus construct to generate the control CAS9 expressing cells. The Cas9 cells had wild type cereblon expression (CRBN^WT). […]
observationType: pIC50
Answers are plain numbers, as −log10 of the molar value.

Q) For the compound shown here, O=C1CC[C@H](N2C(=O)c3cccc(NCc4ccc(CN5CC(N6CCOCC6)C5)cc4F)c3C2=O)C(=O)N1 , give the reported pIC50.
A) 7.46
